Hi there, I'd appreciate the recorded pEC50 for every entry that follows.
Biological target: human VDR (Homo sapiens, UniProt P11473)
Sequence (P11473 1-427): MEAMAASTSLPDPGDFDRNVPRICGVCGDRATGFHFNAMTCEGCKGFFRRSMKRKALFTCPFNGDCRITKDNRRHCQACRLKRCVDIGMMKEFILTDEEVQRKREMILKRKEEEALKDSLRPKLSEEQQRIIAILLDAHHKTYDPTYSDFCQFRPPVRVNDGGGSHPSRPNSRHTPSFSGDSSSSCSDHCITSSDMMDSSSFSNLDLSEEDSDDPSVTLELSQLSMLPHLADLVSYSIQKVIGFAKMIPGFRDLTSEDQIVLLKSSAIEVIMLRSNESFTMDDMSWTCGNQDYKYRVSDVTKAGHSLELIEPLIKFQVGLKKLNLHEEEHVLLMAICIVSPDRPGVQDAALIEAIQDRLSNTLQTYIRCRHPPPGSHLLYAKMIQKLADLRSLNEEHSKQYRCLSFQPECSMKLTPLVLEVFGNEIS
Sequence (P19793 1-462 partner): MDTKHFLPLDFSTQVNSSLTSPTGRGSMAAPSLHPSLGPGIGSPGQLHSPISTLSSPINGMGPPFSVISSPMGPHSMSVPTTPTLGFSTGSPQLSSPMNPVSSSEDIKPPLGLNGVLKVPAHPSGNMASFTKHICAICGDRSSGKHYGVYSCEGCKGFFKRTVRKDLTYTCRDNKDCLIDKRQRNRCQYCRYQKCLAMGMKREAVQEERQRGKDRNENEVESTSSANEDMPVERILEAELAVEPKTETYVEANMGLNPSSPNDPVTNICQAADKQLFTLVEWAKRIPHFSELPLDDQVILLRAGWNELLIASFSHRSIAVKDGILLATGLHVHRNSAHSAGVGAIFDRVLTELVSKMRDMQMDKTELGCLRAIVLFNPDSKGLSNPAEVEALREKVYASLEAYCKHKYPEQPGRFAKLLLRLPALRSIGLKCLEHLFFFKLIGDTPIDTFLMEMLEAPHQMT
Assay: Evaluation of VDR transcription activity in human osteoblasts (HOS cells), luciferase reporter
Conditions: Activity (EC50, VDR transcription activity), HOS cells transfected with human VDR, human RXRα and DR3 luciferase reporter; 21 hours
pEC50: −log10 of the molar value.

Query string: Give the measured pEC50 of C=C1/C(=C\C=C2/CCC[C@]3(C)[C@@H]([C@H](C)CN4CC(C(C)(F)F)C4)CC[C@@H]23)C[C@@H](O)C[C@@H]1O [Compound A006] .
Result string: 7.00 to 8.00

Query string: One more molecule: C=C1[C@H](O)CC(=C/C=C2\CCC[C@]3(C)[C@@H]([C@H](C)CN4CC[C@@H](C(F)F)C4)CC[C@@H]23)C[C@H]1O [Compound B027]
Result string: 8.00 to 9.00

Query string: One more molecule: C=C1/C(=C\C=C2/CCC[C@]3(C)[C@@H]([C@H](C)CN4CCCC(O)(C(F)(F)F)C4)CC[C@@H]23)C[C@@H](O)C[C@@H]1O (single isomer, unassigned) [Compound C030b]
Result string: 8.00 to 9.00

// provenance: patent US20230348376A1
